Experiment: self-splicing fitness, log relative to wild type (ln ratio); higher = more splicing; Tetrahymena group I intron in knt gene, E. coli kanamycin selection, DiMSum; sequences stand for … in CUCUCU…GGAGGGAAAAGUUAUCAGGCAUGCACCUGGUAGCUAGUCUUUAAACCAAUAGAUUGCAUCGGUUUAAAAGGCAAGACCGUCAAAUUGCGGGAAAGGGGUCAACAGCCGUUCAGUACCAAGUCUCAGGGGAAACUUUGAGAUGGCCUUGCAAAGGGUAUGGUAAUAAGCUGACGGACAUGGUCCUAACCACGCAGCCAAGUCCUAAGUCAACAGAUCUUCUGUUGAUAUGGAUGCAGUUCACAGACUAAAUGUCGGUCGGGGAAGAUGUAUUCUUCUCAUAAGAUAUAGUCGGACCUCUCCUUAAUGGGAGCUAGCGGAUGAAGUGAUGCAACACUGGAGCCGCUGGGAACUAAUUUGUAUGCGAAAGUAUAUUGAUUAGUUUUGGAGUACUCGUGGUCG;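 note: selection with 25 µg/mL kanamycin versus none on LB agar overnight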
Conditions: 37 °C
Reported self-splicing fitness (ln) maps to class as: interval 1: < -2; interval 2: ≥ -2 and < -1; interval 3: ≥ -1

Please classify: `AAUAAGCAAUAUUACGGCCC`
interval 3

Please classify: `GGCCAGCAAUAUUACGGUCC`
interval 1

Please classify: `UGGGAGCAAUAUUACGCUGC`
interval 2

Please classify: `CACGAGCAAUAUUACGAUCC`
interval 2

Please classify: `UAACAGCAAUAUUACGUGCG`
interval 3

Please classify: `CUAAAGCAAUAUUACGGUGU`
interval 1

Please classify: `CUGUAGCAAUAUUACGGCUA`
interval 2

Please classify: `GCUGAGCAAUAUUACGCGAG`
interval 2

Please classify: `CGGUAGCAAUAUUACGCAGG`
interval 2

Please classify: `UCACAGCAAUAUUACGCCUG`
interval 3

Please classify: `CGAGAGCAAUAUUACGCUUU`
interval 1

Please classify: `UCGUAGCAAUAUUACGAAAC`
interval 1

Please classify: `ACAAAGCAAUAUUACGUAAA`
interval 3

Please classify: `UAUUAGCAAUAUUACGGUAU`
interval 1

Please classify: `GUCUAGCAAUAUUACGCUCG`
interval 3

Please classify: `UCCCAGCAAUAUUACGAUAA`
interval 2

Please classify: `UUCUAGCAAUAUUACGUGCU`
interval 1

Please classify: `CGAUAGCAAUAUUACGUAUG`
interval 3

Please classify: `CCGAAGCAAUAUUACGCCUA`
interval 1

Please classify: `GUCAAGCAAUAUUACGCCGG`
interval 3

Please classify: `CAAUAGCAAUAUUACGAGGU`
interval 2

Please classify: `AGCAAGCAAUAUUACGAACU`
interval 3

Please classify: `CCUAAGCAAUAUUACGCAGU`
interval 2

Please classify: `CAAGAGCAAUAUUACGUCCC`
interval 2

Please classify: `AAAAAGCAAUAUUACGAGAU`
interval 2

Please classify: `UAUGAGCAAUAUUACGAAGG`
interval 2

Please classify: `UAUGAGCAAUAUUACGGCGU`
interval 1

Please classify: `AGGCAGCAAUAUUACGGAGA`
interval 1

Please classify: `ACUUAGCAAUAUUACGAACC`
interval 3

Please classify: `UUCCAGCAAUAUUACGUAUG`
interval 2

Please classify: `CCAUAGCAAUAUUACGAGCG`
interval 3

Please classify: `GCAGAGCAAUAUUACGUCAC`
interval 1

Please classify: `GAGCAGCAAUAUUACGUAUC`
interval 2

Please classify: `GAAGAGCAAUAUUACGCAUU`
interval 1

Please classify: `UUAGAGCAAUAUUACGAAUG`
interval 1

Please classify: `GGUUAGCAAUAUUACGUUAA`
interval 3

Please classify: `UCUCAGCAAUAUUACGUCAG`
interval 1

Please classify: `GCGUAGCAAUAUUACGUGAG`
interval 1

Please classify: `GCGAAGCAAUAUUACGAAGA`
interval 3

Please classify: `UUUGAGCAAUAUUACGGCUG`
interval 3

Please classify: `CAACAGCAAUAUUACGCAGA`
interval 2

Please classify: `GGAUAGCAAUAUUACGCUUG`
interval 2

Please classify: `UAAGAGCAAUAUUACGAGCA`
interval 3

Please classify: `GAAAAGCAAUAUUACGUGAC`
interval 2

Please classify: `UGUGAGCAAUAUUACGCGAU`
interval 1

Please classify: `UCAAAGCAAUAUUACGGUAC`
interval 1

Please classify: `CGGAAGCAAUAUUACGGGAU`
interval 1

Please classify: `GGGGAGCAAUAUUACGUUCG`
interval 3

Please classify: `AGACAGCAAUAUUACGGAGU`
interval 1

Please classify: `UCCCAGCAAUAUUACGUACC`
interval 3

Please classify: `CAGAAGCAAUAUUACGGCGG`
interval 3

Please classify: `AUUUAGCAAUAUUACGACUC`
interval 3
